Kindly state Mouse Tail Suspension Mean Immobility Time ± S.E.M. for each of the entries shown.
# System: mice
# TEST DESCRIPTION: Mouse tail suspension test
# Format: in vivo
# CONDITION INFO: 10 mg/kg, PO; 30-60 minutes before the test; 5 minutes recording
In your answer, state the number alone without any accompanying words.

Sure, the documented Mouse Tail Suspension Mean Immobility Time ± S.E.M. for CCC(N)C1(c2ccc(Cl)c(Cl)c2)CCCCC1 (single isomer, unassigned) [17 E1] is 182.6

Sure, the documented Mouse Tail Suspension Mean Immobility Time ± S.E.M. for CNC(C)C1(c2ccc(Cl)c(Cl)c2)CCCCC1 (single isomer, unassigned) [44 E1] is 174.5

Sure, the documented Mouse Tail Suspension Mean Immobility Time ± S.E.M. for CN(C)CC1(c2ccc3ccccc3c2)CCCCC1O (single isomer, unassigned) [164 E1] is 162.1

Sure, the documented Mouse Tail Suspension Mean Immobility Time ± S.E.M. for CNC(C)C1(c2ccc(Cl)c(Cl)c2)CCCCC1.Cl (single isomer, unassigned) [48 E1] is 174.1

Sure, the documented Mouse Tail Suspension Mean Immobility Time ± S.E.M. for CN(C)CC1(c2ccc3ccccc3c2)CCCCC1O (single isomer, unassigned) [164 E2] is 179.1

Sure, the documented Mouse Tail Suspension Mean Immobility Time ± S.E.M. for CN(C)C[C@]1(c2ccc3ccccc3c2)CC[C@](C)(O)CC1 [Compound 225] is 137.8

Sure, the documented Mouse Tail Suspension Mean Immobility Time ± S.E.M. for CNCC1(c2ccc(Cl)c(Cl)c2)CCCCC1.Cl [Compound 75] is 177.7

Sure, the documented Mouse Tail Suspension Mean Immobility Time ± S.E.M. for CC(N(C)C)C1(c2ccc3ccccc3c2)CCCCC1 (single isomer, unassigned) [56 E1] is 174.8

Sure, the documented Mouse Tail Suspension Mean Immobility Time ± S.E.M. for CNCC1(c2ccc3ccccc3c2)CCCCC1 [Compound 93] is 185.4

* * *

# STUDY TARGET: human serotonin reuptake transporter (Homo sapiens)
# TEST DESCRIPTION: cell-based
# CONDITION INFO: Human IC50 (nM) hSERT
Kindly state IC50 for each of the entries shown.
Report as a plain number; the unit nM is understood.

Sure, the documented IC50 for CN(C)CC1(c2ccc(Cl)c(Cl)c2)CC=CCC1 (stereo not drawn) is 136

Sure, the documented IC50 for CNCC1(c2ccc(Cl)c(Cl)c2)CCCC1 is 829

Sure, the documented IC50 for CNCC1(c2ccc(Cl)c(Cl)c2)CCCC(F)(F)C1 (single isomer, unassigned) [205 E1] is 4210

Sure, the documented IC50 for CNCC1(c2ccc(Cl)c(Cl)c2)CCCC(F)(F)C1 (single isomer, unassigned) [205 E2] is 1710

Sure, the documented IC50 for CC(C)CC(N)C1(c2ccc(Cl)cc2)CCCCC1 (stereo not drawn) [Compound 21] is 2100

Sure, the documented IC50 for CC(C)CC(N)C1(c2ccc(Cl)cc2)CCCCC1 (single isomer, unassigned) [21 E1] is 9660

Sure, the documented IC50 for CC(C)CC(N)C1(c2ccc(Cl)cc2)CCCCC1 (single isomer, unassigned) [21 E2] is 1240

* * *

# STUDY TARGET: DA Transporter (DAT) Sites in Mouse Brain (Mus musculus)
# Construct: Striatum was used to determine occupancy of DA transporter sites; from tissue; host or cells: C57BL/6 mouse striatum homogenate
# Sequence (Q61327 whole entry): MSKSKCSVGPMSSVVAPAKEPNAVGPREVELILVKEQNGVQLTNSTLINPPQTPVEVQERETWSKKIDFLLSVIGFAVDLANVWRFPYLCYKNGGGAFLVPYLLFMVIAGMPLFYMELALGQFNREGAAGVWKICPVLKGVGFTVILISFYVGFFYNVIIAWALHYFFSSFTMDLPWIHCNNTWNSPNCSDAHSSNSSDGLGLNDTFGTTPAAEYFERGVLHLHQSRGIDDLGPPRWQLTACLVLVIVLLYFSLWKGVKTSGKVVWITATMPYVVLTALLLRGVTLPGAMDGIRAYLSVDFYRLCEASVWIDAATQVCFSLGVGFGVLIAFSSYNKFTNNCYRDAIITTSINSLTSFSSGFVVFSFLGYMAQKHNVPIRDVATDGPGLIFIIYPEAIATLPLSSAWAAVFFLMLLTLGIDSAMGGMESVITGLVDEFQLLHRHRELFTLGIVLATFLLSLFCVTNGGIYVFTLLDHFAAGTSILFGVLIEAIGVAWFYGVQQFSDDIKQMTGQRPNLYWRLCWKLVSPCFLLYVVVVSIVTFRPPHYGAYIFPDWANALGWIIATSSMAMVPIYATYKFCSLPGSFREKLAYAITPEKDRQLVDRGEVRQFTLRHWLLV
# TEST DESCRIPTION: Ex vivo [3H] WIN 35428 binding after oral dosing
# Parameters: species or system C57BL/6 mice
# CONDITION INFO: 30 mg/kg, 60 minutes after treatment, vs vehicle
PROPERTY: % Transporter Occupancy, DAT (%)
Report as a plain number; the unit % is understood.

With DA Transporter (DAT) Sites in Mouse Brain (Mus musculus) as the test system, CN(C)CC1(c2ccc(Cl)c(Cl)c2)CCC(C)(O)CC1 (centres unmarked) showed % Transporter Occupancy, DAT of 26

With DA Transporter (DAT) Sites in Mouse Brain (Mus musculus) as the test system, CN(C)C[C@]1(c2ccc3ccccc3c2)CC[C@](C)(O)CC1 showed % Transporter Occupancy, DAT of 29

With DA Transporter (DAT) Sites in Mouse Brain (Mus musculus) as the test system, CC(N(C)C)C1(c2ccc3ccccc3c2)CCCCC1 (single isomer, unassigned) [56 E1] showed % Transporter Occupancy, DAT of 67

With DA Transporter (DAT) Sites in Mouse Brain (Mus musculus) as the test system, CNCC1(c2ccc(Cl)c(Cl)c2)CCC(C)(O)CC1 (centres unmarked) showed % Transporter Occupancy, DAT of 31

With DA Transporter (DAT) Sites in Mouse Brain (Mus musculus) as the test system, CNC(C)C1(c2ccc3ccccc3c2)CCCCC1 (single isomer, unassigned) [58 E1] showed % Transporter Occupancy, DAT of 24

* * *

Kindly state IC50 for each of the entries shown.
# STUDY TARGET: human serotonin reuptake transporter (Homo sapiens, UniProt P31645)
# Sequence (P31645 whole entry): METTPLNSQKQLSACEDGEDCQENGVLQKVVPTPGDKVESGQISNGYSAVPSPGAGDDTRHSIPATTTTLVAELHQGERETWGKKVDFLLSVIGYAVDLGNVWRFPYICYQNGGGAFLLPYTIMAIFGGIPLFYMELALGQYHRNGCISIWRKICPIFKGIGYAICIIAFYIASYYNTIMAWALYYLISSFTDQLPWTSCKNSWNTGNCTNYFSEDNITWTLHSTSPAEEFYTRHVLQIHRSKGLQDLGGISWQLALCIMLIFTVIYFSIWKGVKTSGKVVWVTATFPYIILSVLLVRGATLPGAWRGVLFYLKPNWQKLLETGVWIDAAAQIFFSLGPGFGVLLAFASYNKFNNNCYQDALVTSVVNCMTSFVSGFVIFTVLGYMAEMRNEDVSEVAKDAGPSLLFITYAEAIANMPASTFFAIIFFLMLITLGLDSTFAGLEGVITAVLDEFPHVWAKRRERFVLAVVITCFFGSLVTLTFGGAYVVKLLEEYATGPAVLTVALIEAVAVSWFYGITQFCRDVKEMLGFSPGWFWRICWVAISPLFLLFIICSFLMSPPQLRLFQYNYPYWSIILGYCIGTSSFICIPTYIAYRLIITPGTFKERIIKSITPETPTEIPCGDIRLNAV
# TEST DESCRIPTION: cell-based
# CONDITION INFO: recombinant human serotonin transporter (SERT); read-out: Human IC50 (nM) hSERT
Report as a plain number; the unit nM is understood.

Sure, the documented IC50 for CC1(O)CCCC(CN)(c2ccc(Cl)c(Cl)c2)C1 (single isomer, unassigned) [193 E2] is 957

Sure, the documented IC50 for CNCC1(c2ccc(Cl)c(Cl)c2)CCC(=O)CC1 [Compound 289] is 469

Sure, the documented IC50 for CNCC1(c2ccc3ccccc3c2)CCC(C)(O)CC1 (stereo not shown) [Compound 223] is 73

Sure, the documented IC50 for CNCC1(c2ccc(OC(F)(F)F)cc2)CCC(O)CC1 (stereo not shown) [Compound 249] is 405

Sure, the documented IC50 for CNCC1(c2ccc(F)c3ccccc23)CCCCC1 [Compound 69] is 930

Sure, the documented IC50 for NCC1(c2ccc3cc(F)ccc3c2)CCCCC1 [Compound 39] is 295

Sure, the documented IC50 for CC(N)C1(c2ccc(-c3ccoc3)cc2)CCCCC1 (single isomer, unassigned) [20 E1] is 40

Sure, the documented IC50 for CC1(O)CCC(CN)(c2ccc3ccccc3c2)CC1 (stereo not shown) [Compound 209] is 1160

Sure, the documented IC50 for CC(N(C)C)C1(c2ccc(OC(F)(F)F)cc2)CCCCC1 (single isomer, unassigned) [63 E2] is 2

Sure, the documented IC50 for CNCC1(c2ccc(Cl)c(Cl)c2)CCC(C)(O)CC1 (stereo not shown) [Compound 276] is 210

Sure, the documented IC50 for CC(N)C1(c2ccc(OC(F)(F)F)cc2)CCCCC1 (stereo not shown) [Compound 19] is 107

Sure, the documented IC50 for CCNCC1(c2ccc(Cl)c(Cl)c2)CCCCC1CO (single isomer, unassigned) [169 E2] is 332

Sure, the documented IC50 for CC1(O)CCC(CN)(c2ccc(OC(F)(F)F)cc2)CC1 (stereo not shown) [Compound 219] is 269

Sure, the documented IC50 for CC(N(C)C)C1(c2cccc3ccccc23)CCCCC1 (single isomer, unassigned) [60 E2] is 4630

Sure, the documented IC50 for CN(C)CC1(c2ccc(Cl)c(Cl)c2)CCC(C)(O)CC1 (stereo not shown) [Compound 274] is 809

Sure, the documented IC50 for CN(C)CC1(c2ccc3ccccc3c2)CCC(O)(CF)CC1 (stereo not shown) [Compound 246] is 43

Sure, the documented IC50 for COC1CCCC(CN)(c2ccc(Cl)c(Cl)c2)C1 (single isomer, unassigned) [195 E2] is 45

Sure, the documented IC50 for CC(N)C1(c2ccc(OC(F)(F)F)cc2)CCCCC1 (single isomer, unassigned) [19 E1] is 1510

Sure, the documented IC50 for CN(C)CC1(c2ccc3ccccc3c2)CCC(O)CC1 (stereo not shown) [Compound 228] is 96

Sure, the documented IC50 for CN(C)CC1(c2ccc(OC(F)(F)F)cc2)CCC(O)CC1 (stereo not shown) [Compound 250] is 47

Sure, the documented IC50 for CC(N)C1(c2ccc(-c3ccoc3)cc2)CCCCC1 (stereo not shown) [Compound 20] is 24

Sure, the documented IC50 for CN(C)CC1(c2ccc3ccccc3c2)CCC(F)CC1 (stereo not shown) [Compound 235] is 9

* * *

# STUDY TARGET: human dopamine reuptake transporter (Homo sapiens, UniProt Q01959)
# Construct: expressed in transfected cells; host or cells: CHO-K1 or HEK293
# Sequence (Q01959 whole entry): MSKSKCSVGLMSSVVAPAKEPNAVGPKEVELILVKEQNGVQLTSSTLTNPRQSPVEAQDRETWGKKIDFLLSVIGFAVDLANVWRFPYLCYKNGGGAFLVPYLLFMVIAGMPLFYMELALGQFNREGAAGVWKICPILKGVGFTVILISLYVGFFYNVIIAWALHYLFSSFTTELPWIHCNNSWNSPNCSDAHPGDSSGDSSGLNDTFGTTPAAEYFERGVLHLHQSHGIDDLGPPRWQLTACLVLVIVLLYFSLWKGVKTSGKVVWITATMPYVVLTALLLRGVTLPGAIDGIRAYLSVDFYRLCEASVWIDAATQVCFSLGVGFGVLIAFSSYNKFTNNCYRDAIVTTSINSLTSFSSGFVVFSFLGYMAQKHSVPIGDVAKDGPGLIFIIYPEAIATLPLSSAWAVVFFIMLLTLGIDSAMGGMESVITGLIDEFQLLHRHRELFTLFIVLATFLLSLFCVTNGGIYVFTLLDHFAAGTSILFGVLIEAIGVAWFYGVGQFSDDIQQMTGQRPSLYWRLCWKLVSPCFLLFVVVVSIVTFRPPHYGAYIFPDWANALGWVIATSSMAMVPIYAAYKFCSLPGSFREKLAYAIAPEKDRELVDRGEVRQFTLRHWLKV
# TEST DESCRIPTION: cell-based
# CONDITION INFO: read-out: Human IC50 (nM) hDAT
Kindly state log10(IC50) for each of the entries shown.
A value of 2 here means IC50 of 100 in nM, since values are log10.

Sure, the documented log10(IC50) for CNCC1(c2ccc3ccccc3c2)CCC(C)(O)CC1 (centres unmarked) [Compound 223] is 2.94

Sure, the documented log10(IC50) for CN(C)CC1(c2ccc3ccccc3c2)CCC(O)CC1 (centres unmarked) [Compound 228] is 3.19

Sure, the documented log10(IC50) for CN(C)CC1(c2ccc3ccccc3c2)CCC(O)CC1 (centres unmarked) [Compound 229] is 1.60

Sure, the documented log10(IC50) for CN(C)CC1(c2ccc(Cl)c(Cl)c2)CCC(Oc2ccccc2)CC1 (centres unmarked) [Compound 266] is 2.93

Sure, the documented log10(IC50) for CNCC1(c2ccc3ccccc3c2)CCC(C)(O)CC1 (centres unmarked) [Compound 222] is 3.32
